These measurements were taken from the supplement of paper PMC11451515.

Tested on: P12-Ichikawa
Experiment: cell viability relative to DMSO control; higher = less cytotoxic
Measurement context: HPLM + 10% dialyzed FBS; 48 h; 0.569 µM

>  <Compound>
CC\1=C/C=C\C=[N]1[Pt](N)(Cl)Cl

>  <cell viability [%]>
102

$$$$
>  <Compound>
CCCCn1c(=O)n(Cc2ccccc2F)c(=O)c2nc(Cc3ccc(NC(C)=O)cc3)[nH]c21

>  <cell viability [%]>
89.4

$$$$
>  <Compound>
COC(=O)Nc1nc2cc(C(=O)c3cccs3)ccc2[nH]1

>  <cell viability [%]>
25.4

$$$$
>  <Compound>
CC\1=C(C(\N=C(/N1)C2=CC(=NC=C2)Cl)C3=C(F)C=C(Cl)C=C3)/C(=O)NC4=C(F)C=C5[NH]N=CC5=C4 (stereo unspecified)

>  <cell viability [%]>
112

$$$$
>  <Compound>
OC1=C(O)C2=C(\C=C/C(=O)O2)C=C1

>  <cell viability [%]>
114

$$$$
>  <Compound>
CN(C)CCOc1cc(-c2cn[nH]c2)ccc1NC(=O)C1COc2ccccc2O1 (stereo unspecified)

>  <cell viability [%]>
110

$$$$

---

Tested on: P12-Ichikawa
Experiment: cell viability relative to DMSO control; higher = less cytotoxic
Measurement context: HPLM + 10% dialyzed FBS; 48 h; 46.1 µM

>  <Compound>
CC(C)[C@@H](N(CCCN)C(=O)C1=CC=C(C)C=C1)C/2=N/C3=CC(=CC=C3C(=O)N2CC4=CC=CC=C4)Cl

>  <Units of measure>
%

>  <cell viability>
8.59

$$$$
>  <Compound>
C[C@H](NC(=O)/C(C#N)=C/c1cccc(Br)n1)c1ccccc1

>  <Units of measure>
%

>  <cell viability>
7.45

$$$$
>  <Compound>
Cc1c(CCOc2ccc(C(=O)O)cc2)c2cc(Cl)ccc2n1C(c1ccccc1)c1ccccc1

>  <Units of measure>
%

>  <cell viability>
71.8

$$$$
>  <Compound>
C[C@H]1[C@H](NC(=O)/C(=N/OC(C)(C)C(=O)O)c2csc(N)n2)C(=O)N1[S+](=O)([O-])O

>  <Units of measure>
%

>  <cell viability>
103

$$$$
>  <Compound>
C=C(C)[C@@H]1CC[C@]2(C(=O)O)CC[C@]3(C)[C@H](CC[C@@H]4[C@@]5(C)CC[C@H](O)C(C)(C)[C@@H]5CC[C@]43C)[C@@H]12

>  <Units of measure>
%

>  <cell viability>
97.3

$$$$
>  <Compound>
C[C@@H](NC1=CC=CC=C1C(O)=O)C/2=C/C(=C\N3C(=O)/C=C(\N=C23)N4CCOCC4)C

>  <Units of measure>
%

>  <cell viability>
39.9

$$$$
>  <Compound>
CN1[C@@H]2CC[C@H]1CC(OC(=O)c1c[nH]c3ccccc13)C2 (some centres not stated)

>  <Units of measure>
%

>  <cell viability>
111

$$$$
>  <Compound>
O=NN(CCCl)C(=O)NC1CCCCC1

>  <Units of measure>
%

>  <cell viability>
105

$$$$
>  <Compound>
CN[S+](=O)([O-])Cc1ccc2[nH]cc(CCN(C)C)c2c1

>  <Units of measure>
%

>  <cell viability>
126

$$$$
>  <Compound>
[NH2][Pt]1([NH2])[O]CC(=O)[O]1

>  <Units of measure>
%

>  <cell viability>
105

$$$$
>  <Compound>
CC(C)c1cnn2c(NCc3ccccc3)cc(N[C@@H](CO)[C@H](O)CO)nc12

>  <Units of measure>
%

>  <cell viability>
4.01

$$$$
>  <Compound>
COC1CCC(CC1)N(C(=O)C2CCC(C)CC2)C3=C(SC(=C3)\C4=C\CCCC4)C(O)=O (configuration not stated)

>  <Units of measure>
%

>  <cell viability>
60

$$$$
>  <Compound>
COc1cc2nc(N(C)CCCNC(=O)C3CCCO3)nc(N)c2cc1OC (configuration not stated)

>  <Units of measure>
%

>  <cell viability>
94.1

$$$$
>  <Compound>
CN(c1ncccc1CNc1nc(Nc2ccc3c(c2)CC(=O)N3)ncc1C(F)(F)F)[S+](C)(=O)[O-]

>  <Units of measure>
%

>  <cell viability>
57.8

$$$$
>  <Compound>
CC[C@H](CC#N)OC(=O)N[C@@H](C)c1cccc(NC(=O)Nc2ccc(-c3cnco3)c(OC)c2)c1

>  <Units of measure>
%

>  <cell viability>
40.6

$$$$
>  <Compound>
CCc1cc(Nc2nccc(-c3c(-c4ccc(OC)c(C(=O)Nc5c(F)cccc5F)c4)nc4ccccn34)n2)c(OC)cc1N1CCC(N2CCN([S+](C)(=O)[O-])CC2)CC1

>  <Units of measure>
%

>  <cell viability>
39.8

$$$$
>  <Compound>
O=C(OC)[C@]12CC[C@@]3(C)[C@]4(C)CC[C@H]5[C@@](C)(C)C(=O)C(=C[C@]5(C)C4=CC(=O)[C@@H]3[C@@H]2C[C@](C)(C)CC1)C#N

>  <Units of measure>
%

>  <cell viability>
2.66

$$$$
